Reported IC50, Focal adhesion kinase 1 (Homo sapiens).

- test-smiles: "Cc1nn(-c2cc(Cl)cc(CCC(N)=O)c2)c2cc(N[C@@H](C)c3ccccc3)ncc12"
  IC50, µM: 7.46
- test-smiles: "CC(=O)Nc1ccccc1-c1cc(Cl)cc(-n2nc(C)c3cnc(N[C@@H](C)c4ccccc4)cc32)c1"
  IC50, µM: 6.28
